Molecular target: T1, tail-chimeric peptide IhfA3-IhfB2NTHI (nontypeable Haemophilus influenzae …)
T1 construct: also called IHF(NTHI) tail chimeric peptide; IHFNTHI tail chimeric peptide
T1 peptide: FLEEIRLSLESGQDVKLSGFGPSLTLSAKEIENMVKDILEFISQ
Test: SPR Biacore 3000, peptide immobilized, HuMab as analyte
readoutLabel: kon

Below are worked cases with known answers.
• humanized anti-tail monoclonal antibody, heavy chain SEQ ID NO: 5 and light chain SEQ ID NO: 11 (antibody, V domains shown, also called H10214 (11E7.C7 Humanized HC2) + L10214 (11E7.C7 Humanized LC2)) VH: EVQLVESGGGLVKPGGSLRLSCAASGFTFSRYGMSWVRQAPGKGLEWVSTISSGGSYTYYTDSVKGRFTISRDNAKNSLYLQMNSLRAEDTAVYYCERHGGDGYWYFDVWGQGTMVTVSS VL: DIQMTQSPSSLSASVGDRVTITCRASQDISNYLNWYQQKPGKAVKLLIYYTSRLHSGVPSRFSGSGSGTDYTLTISSLQPEDFATYYCQQGNPLRTFGGGTKVEIKR = 120000 M⁻¹ s⁻¹
• humanized anti-tail monoclonal antibody, heavy chain SEQ ID NO: 4 and light chain SEQ ID NO: 10 (antibody, V domains shown, also called HuTailMab; TP-21958) VH: EVQLVESGGGLVKPGGSLRLSCAASGFTFSRYGMSWVRQAPGKGLEWVATISSGGSYTYYTDSVKGRFTISRDNAKNSLYLQMNSLRAEDTAVYYCERHGGDGYWYFDVWGQGTMVTVSS VL: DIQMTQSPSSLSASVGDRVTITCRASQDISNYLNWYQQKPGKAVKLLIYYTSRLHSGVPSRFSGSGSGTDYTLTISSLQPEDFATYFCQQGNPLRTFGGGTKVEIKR = 150000 M⁻¹ s⁻¹

Switching to the query record.
Sure, the documented kon for humanized anti-tail monoclonal antibody, heavy chain SEQ ID NO: 4 and light chain SEQ ID NO: 12 (antibody, V domains shown, also called H10213 (11E7.C7 Humanized HC1) + L10215 (11E7.C7 Humanized LC3)) VH: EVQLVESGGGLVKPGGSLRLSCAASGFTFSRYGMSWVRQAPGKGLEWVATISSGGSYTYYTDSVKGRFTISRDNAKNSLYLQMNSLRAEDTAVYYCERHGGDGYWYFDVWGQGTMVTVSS VL: DIVMTQSPATLSLSPGERATLSCRASQDISNYLNWYQQKPGQAVRLLIYYTSRLHSGIPARFSGSGSGTDYTLTISSLEPEDFAVYFCQQGNPLRTFGGGTKVEIKR is 110000 M⁻¹ s⁻¹
